Exercise: for every item that follows, state its recorded melting point.

Examples from the recorded data:
> print(dat)
                                   molecule           observed
1  CCOc1ccc2nc(NCC[S+](C)[O-])ncc2c1 (centres unmarked)  152.7 to 154.6 °C
2  CS(=O)(=O)N1CCC(Nc2ncc3cc(Oc4ccc(F)cc4F)ccc3n2)CC1  173.9 to 177.1 °C
3  CCC(CO)(CO)Nc1ncc2cc(Oc3ccc(F)cc3F)ccc2n1    110 to 112.9 °C
4       CC(C)Nc1ncc2cc(Oc3ccc(F)cc3F)ccc2n1    160 to 162.6 °C
5   OCCC(CCO)Nc1ncc2cc(Oc3ccc(F)cc3F)ccc2n1  112.9 to 113.6 °C

Please give melting point, item by item, for the list that follows.
1. OC1CCC(Nc2ncc3cc(Oc4ccc(F)cc4F)ccc3n2)CC1 (centres unmarked)
2. OCC(O)CNc1ncc2cc(Oc3ccc(F)cc3F)ccc2n1 (centres unmarked)

1: 176.2 to 176.8 °C; 2: 161.5 to 162.7 °C

So for CS(=O)(=O)CCNc1ncc2cc(Oc3ccc(F)cc3F)ccc2n1 , the logged melting point turned out to be 160.1 to 161.5 °C

Provenance of the data: patent US7456185B2
